System: HCV NS3 protease variant replicon V36A
Test: microbe, parasite or virus in culture
Format: cell-based
Conditions: Hepatitis C virus, read-out: Avg. IC50
Value Kind: pIC50
Scale note: pIC50 = -log10(concentration in M).

Lab book: pIC50 of NC(=O)c1ncn([C@@H]2O[C@H](CO)[C@@H](O)[C@H]2O)n1 [Ribavirin, reference compound] noted as 4.37

----------
Tested on: HCV replicon Wild Type (mADE)
Assay: 2-Day HCV Replicon IC50 Assay, wild type replicon
Assay type: cell-based
Conditions: Hepatitis C virus; Table 8; Wild Type replicon; read-out: Avg. IC50 ± STDEV
Value Kind: pIC50
Units for pIC50: none; it is -log10 of a concentration expressed in mol/L.

Illustrative cases are given below, each with its answer.
CCC[C@H](NC(=O)[C@@H]1[C@H]2CCC[C@H]2CN1C(=O)[C@@H](NC(=O)[C@@H](NC(=O)c1cnccn1)C1CCCCC1)C(C)(C)C)C(=O)C(=O)NC1CC1 6.34
C[C@@]1(O)[C@H](O)[C@@H](CO)O[C@H]1n1ccc(N)nc1=O 5.87
O=c1c(C2=NS(=O)(=O)c3ccccc3N2)c(O)c2ccccc2n1NC1CCC1 6.46

Switching to the query record.
Documented pIC50 of CCN(CC)C1CCN(C(=O)Cn2c(-c3ccc(Cl)cc3)c(C3CCCCC3)c3ccc(C(=O)O)cc32)CC1 : 6.50

Values compiled from patent US8258116B2.
